Cited source: the Human Domainome abundance scans (Beltran et al. 2025)

B1: Receptor-interacting serine/threonine-protein kinase 2, residues 438 to 518; numbered along this chain, O43353 (parent)
chain: QWIQSKREDIVNQMTEACLNQSLDALLSRDLIMKEDYELVSTKPTRTSKVRQLLDTTDIQGEEFAKVIVQKLKDNKQMGLQ

Variants of: B1
Experiment: abundance fitness (aPCA) (normalised: wild type 0, dead -1); higher = more abundant; growth selection in yeast, the domain comes from the species named
Settings: Homo sapiens
Reported Property: abundance fitness

mutation_list=K76N assay_value=-0.203
mutation_list=P44N assay_value=-0.196
mutation_list=Q60H assay_value=-0.199
mutation_list=T57E assay_value=-0.082
mutation_list=D36V assay_value=-0.587
mutation_list=L39Y assay_value=-0.407
mutation_list=Q52P assay_value=-0.551
mutation_list=T56S assay_value=-0.273
mutation_list=L31N assay_value=-0.782
mutation_list=E62L assay_value=-0.808
mutation_list=V67L assay_value=-0.51
mutation_list=V40C assay_value=-0.302
mutation_list=S28P assay_value=-0.847
mutation_list=K76A assay_value=0.008
mutation_list=A65R assay_value=-0.649
mutation_list=R51M assay_value=-0.354
mutation_list=V69G assay_value=-0.553
mutation_list=D36K assay_value=-0.545
mutation_list=D55G assay_value=-0.51
mutation_list=L39S assay_value=-0.138
mutation_list=L23E assay_value=-0.445
mutation_list=Y37A assay_value=-0.084
mutation_list=D24S assay_value=-0.19
mutation_list=V40F assay_value=-0.436
mutation_list=R51Q assay_value=-0.052
mutation_list=K73Y assay_value=-0.039
mutation_list=E35H assay_value=0.055
